- assay comment: activity coefficient (dimensionless); of the first substance listed, at infinite dilution; xn = mol fraction of the nth substance listed
- measurement conditions: 333 K; 101.33 kPa; Liquid; Chromatography; x1 = 0
quantity kind: activity coefficient
One number for each entry.

[[record]]
molecule = "CCCO [propan-1-ol] + O=S(=O)([N-]S(=O)(=O)C(F)(F)F)C(F)(F)F.O=S(=O)([N-]S(=O)(=O)C(F)(F)F)C(F)(F)F.O=S(=O)([N-]S(=O)(=O)C(F)(F)F)C(F)(F)F.c1ccc2cc(-n3cc[n+](Cc4cc(C[n+]5ccn(-c6ccc7ccccc7c6)c5)cc(C[n+]5ccn(-c6ccc7ccccc7c6)c5)c4)c3)ccc2c1"
endpoint_result = 0.842

[[record]]
molecule = "c1ccncc1 [pyridine] + O=S(=O)([N-]S(=O)(=O)C(F)(F)F)C(F)(F)F.O=S(=O)([N-]S(=O)(=O)C(F)(F)F)C(F)(F)F.O=S(=O)([N-]S(=O)(=O)C(F)(F)F)C(F)(F)F.c1ccc2cc(-n3cc[n+](Cc4cc(C[n+]5ccn(-c6ccc7ccccc7c6)c5)cc(C[n+]5ccn(-c6ccc7ccccc7c6)c5)c4)c3)ccc2c1"
endpoint_result = 0.173


// each molecule listed below needs its activity coefficient
1. CCCC=O [butanal] + O=S(=O)([N-]S(=O)(=O)C(F)(F)F)C(F)(F)F.O=S(=O)([N-]S(=O)(=O)C(F)(F)F)C(F)(F)F.O=S(=O)([N-]S(=O)(=O)C(F)(F)F)C(F)(F)F.c1ccc2cc(-n3cc[n+](Cc4cc(C[n+]5ccn(-c6ccc7ccccc7c6)c5)cc(C[n+]5ccn(-c6ccc7ccccc7c6)c5)c4)c3)ccc2c1
2. Cc1ccccc1 [toluene] + O=S(=O)([N-]S(=O)(=O)C(F)(F)F)C(F)(F)F.O=S(=O)([N-]S(=O)(=O)C(F)(F)F)C(F)(F)F.O=S(=O)([N-]S(=O)(=O)C(F)(F)F)C(F)(F)F.c1ccc2cc(-n3cc[n+](Cc4cc(C[n+]5ccn(-c6ccc7ccccc7c6)c5)cc(C[n+]5ccn(-c6ccc7ccccc7c6)c5)c4)c3)ccc2c1
3. CCOC(C)=O [ethyl acetate] + O=S(=O)([N-]S(=O)(=O)C(F)(F)F)C(F)(F)F.O=S(=O)([N-]S(=O)(=O)C(F)(F)F)C(F)(F)F.O=S(=O)([N-]S(=O)(=O)C(F)(F)F)C(F)(F)F.c1ccc2cc(-n3cc[n+](Cc4cc(C[n+]5ccn(-c6ccc7ccccc7c6)c5)cc(C[n+]5ccn(-c6ccc7ccccc7c6)c5)c4)c3)ccc2c1
4. CCO [ethanol] + O=S(=O)([N-]S(=O)(=O)C(F)(F)F)C(F)(F)F.O=S(=O)([N-]S(=O)(=O)C(F)(F)F)C(F)(F)F.O=S(=O)([N-]S(=O)(=O)C(F)(F)F)C(F)(F)F.c1ccc2cc(-n3cc[n+](Cc4cc(C[n+]5ccn(-c6ccc7ccccc7c6)c5)cc(C[n+]5ccn(-c6ccc7ccccc7c6)c5)c4)c3)ccc2c1
5. CCCCCCC [heptane] + O=S(=O)([N-]S(=O)(=O)C(F)(F)F)C(F)(F)F.O=S(=O)([N-]S(=O)(=O)C(F)(F)F)C(F)(F)F.O=S(=O)([N-]S(=O)(=O)C(F)(F)F)C(F)(F)F.c1ccc2cc(-n3cc[n+](Cc4cc(C[n+]5ccn(-c6ccc7ccccc7c6)c5)cc(C[n+]5ccn(-c6ccc7ccccc7c6)c5)c4)c3)ccc2c1
6. Cc1cccc(C)c1 [1,3-dimethylbenzene] + O=S(=O)([N-]S(=O)(=O)C(F)(F)F)C(F)(F)F.O=S(=O)([N-]S(=O)(=O)C(F)(F)F)C(F)(F)F.O=S(=O)([N-]S(=O)(=O)C(F)(F)F)C(F)(F)F.c1ccc2cc(-n3cc[n+](Cc4cc(C[n+]5ccn(-c6ccc7ccccc7c6)c5)cc(C[n+]5ccn(-c6ccc7ccccc7c6)c5)c4)c3)ccc2c1
7. CCCC(C)=O [pentan-2-one] + O=S(=O)([N-]S(=O)(=O)C(F)(F)F)C(F)(F)F.O=S(=O)([N-]S(=O)(=O)C(F)(F)F)C(F)(F)F.O=S(=O)([N-]S(=O)(=O)C(F)(F)F)C(F)(F)F.c1ccc2cc(-n3cc[n+](Cc4cc(C[n+]5ccn(-c6ccc7ccccc7c6)c5)cc(C[n+]5ccn(-c6ccc7ccccc7c6)c5)c4)c3)ccc2c1

Result:
0.396
2.42
0.544
0.611
6.77
1.52
0.365

Request: Find the measured activity coefficient of CC(C)O [propan-2-ol] + O=S(=O)([N-]S(=O)(=O)C(F)(F)F)C(F)(F)F.O=S(=O)([N-]S(=O)(=O)C(F)(F)F)C(F)(F)F.O=S(=O)([N-]S(=O)(=O)C(F)(F)F)C(F)(F)F.c1ccc2cc(-n3cc[n+](Cc4cc(C[n+]5ccn(-c6ccc7ccccc7c6)c5)cc(C[n+]5ccn(-c6ccc7ccccc7c6)c5)c4)c3)ccc2c1 and report it.
Result: 0.965

---

- assay comment: activity coefficient (dimensionless); of the first substance listed, at infinite dilution; xn = mol fraction of the nth substance listed
- measurement conditions: 333 K; 101.33 kPa; Liquid; Chromatography; x1 = 0
Please provide measured activity coefficient for the entries that follow.
Answers are plain numbers.

[[record]]
molecule = "ClCCCl [1,2-dichloroethane] + O=S(=O)([N-]S(=O)(=O)C(F)(F)F)C(F)(F)F.O=S(=O)([N-]S(=O)(=O)C(F)(F)F)C(F)(F)F.O=S(=O)([N-]S(=O)(=O)C(F)(F)F)C(F)(F)F.c1ccc2cc(-n3cc[n+](Cc4cc(C[n+]5ccn(-c6ccc7ccccc7c6)c5)cc(C[n+]5ccn(-c6ccc7ccccc7c6)c5)c4)c3)ccc2c1"
endpoint_result = 0.677

[[record]]
molecule = "O=C1CCCCC1 [cyclohexanone] + O=S(=O)([N-]S(=O)(=O)C(F)(F)F)C(F)(F)F.O=S(=O)([N-]S(=O)(=O)C(F)(F)F)C(F)(F)F.O=S(=O)([N-]S(=O)(=O)C(F)(F)F)C(F)(F)F.c1ccc2cc(-n3cc[n+](Cc4cc(C[n+]5ccn(-c6ccc7ccccc7c6)c5)cc(C[n+]5ccn(-c6ccc7ccccc7c6)c5)c4)c3)ccc2c1"
endpoint_result = 1


Now look at this entry.
Request: Find the measured activity coefficient of c1ccccc1 [benzene] + O=S(=O)([N-]S(=O)(=O)C(F)(F)F)C(F)(F)F.O=S(=O)([N-]S(=O)(=O)C(F)(F)F)C(F)(F)F.O=S(=O)([N-]S(=O)(=O)C(F)(F)F)C(F)(F)F.c1ccc2cc(-n3cc[n+](Cc4cc(C[n+]5ccn(-c6ccc7ccccc7c6)c5)cc(C[n+]5ccn(-c6ccc7ccccc7c6)c5)c4)c3)ccc2c1 and report it.
Result: 1.35
